Test: mitochondrial membrane potential change in A549 cells, profiling panel, cell-based, JC-1 fluorescence, basal, 24 h, 100 nL (AID 1138);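 also: A549 lung adenocarcinoma cells under basal conditions with no added stimulus; test concentration not given here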
Conditions: higher = more signal
reportedEndpoint: z-score
Answer as a number with no unit attached.

*Q* Look up z-score: CCOC(=O)C1=C[C@@H](C(C)C)N(S(=O)(=O)c2ccc(C)cc2)[C@H]1c1ccc(C(C)C)cc1
*A* 2.96

*Q* Look up z-score: O=C1O[C@H](c2ccccc2)[C@H](c2ccccc2)N2[C@H]1[C@@H](C(=O)N1CCN(c3ncccn3)CC1)[C@]1(C(=O)Nc3ccccc31)[C@H]2c1ccc(OCCO)cc1
*A* -0.442

*Q* Look up z-score: CC(C)(C)OC(=O)CC[C@@]1(C(=O)O)N=C(c2ccc(OCCCO)cc2)O[C@@H]1c1ccccc1N=[N+]=[N-]
*A* -1.49

*Q* Look up z-score: C=CCOC(=O)[C@H]1[C@@H]2C(=O)O[C@@H](c3ccccc3)[C@@H](c3ccccc3)N2[C@@H](c2ccc(OCCOC(=O)[C@@H]3C[C@@H]4C(=O)N5CCC[C@H]5C(=O)N4[C@@H]3c3ccc(O)cc3)cc2)[C@]12C(=O)Nc1ccccc12
*A* -1.19

*Q* Look up z-score: O=C(CS)NCCCCCCNC(=O)[C@H]1C[C@H]2C(=O)N3CCC[C@H]3C(=O)N2[C@H]1c1cccc(OCCO)c1
*A* -0.145

*Q* Look up z-score: COc1cc(C(O)C2C=CC3C(=O)N(c4ccccc4)C(=O)C3N2Nc2ccc(C#N)cc2)cc(OC)c1OC (stereo not drawn)
*A* 0.142

*Q* Look up z-score: Cc1ccc(S[C@]2(C(=O)NCC(C)C)CC(=O)N(Cc3ccccc3)[C@@H]2c2ccc(CO)cc2I)cc1
*A* 1.03

*Q* Look up z-score: C=CC[C@@]1(C(=O)O)N=C(c2ccc(OCCCO)cc2)O[C@@H]1c1ccccc1N=[N+]=[N-]
*A* 0.117

*Q* Look up z-score: Cc1ccc(S[C@]2(C(=O)O)CC(=O)N(C3Cc4ccccc4C3)[C@@H]2c2ccc(CO)cc2I)cc1
*A* 0.478

*Q* Look up z-score: O=C1C=CC(=O)[C@@H]2CC(COc3ccccc3)=C3[C@@H](CCc4ccccc4)OB(O)C[C@@H]3[C@H]12
*A* -1.59

*Q* Look up z-score: COCCOC(=O)N1C(=O)[C@@]2(c3ccccc31)[C@H](c1ccc(O)cc1)N1[C@H](c3ccccc3)[C@H](c3ccccc3)OC(=O)[C@H]1[C@@H]2C(=O)N1CCc2cc(OC)c(OC)cc2C1
*A* 0.355

*Q* Look up z-score: CN(C)CCCCNC(=O)[C@H]1C[C@H]2C(=O)N[C@@H](Cc3ccccc3)C(=O)N2[C@H]1c1ccc(O)cc1
*A* -0.884

*Q* Look up z-score: CO[C@H]1O[C@H](CO)[C@@H](OC(=O)Nc2ccc(Oc3ccccc3)cc2)[C@H](OC(=O)Nc2ccccc2)[C@H]1OC(=O)Nc1ccccc1
*A* -1.69

*Q* Look up z-score: CC(C)N1C(=O)[C@@]2(c3ccc([N+](=O)[O-])cc3)CC(=O)N(CC34CC5CC(CC(C5)C3)C4)[C@@H]2c2ccc(CO)cc21
*A* 0.58

*Q* Look up z-score: O=c1cccc(C=Cc2ccccc2)o1
*A* 0.302

*Q* Look up z-score: O=C1N(CCS(=O)(=O)c2ccccc2)Cc2ccccc2[C@H]2OC(c3ccc(OCCCO)cc3)=N[C@@]12CCS(=O)(=O)c1ccccc1
*A* -1.15

*Q* Look up z-score: C=C(CCCC)/C(=C/C[C@H](OC(C)=O)c1ccc(CO)o1)c1cnc2ccccc2c1
*A* -0.566

*Q* Look up z-score: COc1ccc(C(=O)Nc2cccc(CN3C(=O)[C@@]4(O[C@@H](CCn5cc(CCO)nn5)[C@H]([Si](C)(C)c5ccc(OC)cc5)[C@H]4C)c4ccccc43)c2)cc1
*A* -0.0548

*Q* Look up z-score: CC(C)=CCCC(C)=CC(O)C1C=CC2C(=O)N(c3ccccc3)C(=O)C2N1Nc1ccccc1 (stereo not drawn)
*A* -0.773

*Q* Look up z-score: CCCCCN1CC=CC23O[C@@H]4C=CCOC(=O)[C@@H]4[C@H]2C(=O)N(CCCO)[C@@H]3C1=O (stereo partly drawn)
*A* -0.483

*Q* Look up z-score: [N-]=[N+]=Nc1ccccc1[C@@H]1OC(c2ccc(OCCCO)cc2)=N[C@]1(CCS(=O)(=O)c1ccccc1)C(=O)N1CCOCC1
*A* 1.13

*Q* Look up z-score: COc1cc(CO)ccc1OC(C)=O
*A* 1.54

*Q* Look up z-score: N#Cc1ccc(NN2C(C(O)c3cccs3)C=CC3C(=O)N(c4ccccc4)C(=O)C32)cc1 (stereo not drawn)
*A* 0.989

All values here come from PubChem BioAssay.
